- targetEntity: UniProt P43115
- Sequence (P43115 whole entry): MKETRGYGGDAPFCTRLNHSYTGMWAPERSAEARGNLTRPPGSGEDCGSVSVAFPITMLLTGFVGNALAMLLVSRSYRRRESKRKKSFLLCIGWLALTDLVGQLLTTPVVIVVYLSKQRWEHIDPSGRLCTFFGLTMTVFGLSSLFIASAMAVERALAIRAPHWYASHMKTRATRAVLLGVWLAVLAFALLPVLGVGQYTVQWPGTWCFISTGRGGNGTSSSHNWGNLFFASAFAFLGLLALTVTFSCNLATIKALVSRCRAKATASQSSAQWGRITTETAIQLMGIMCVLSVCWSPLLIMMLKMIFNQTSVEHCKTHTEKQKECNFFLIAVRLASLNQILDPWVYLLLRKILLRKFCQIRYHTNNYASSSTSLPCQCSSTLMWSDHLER
- experimentSummary: Displacement of [3H]PGE2 from human EP3 receptor in buffer
property: IC50 (nM)

Example entries begin here.
smilesstring=O=C(/C=C/c1cccc2c1N(Cc1ccc3ccccc3c1)C(=O)C2)NS(=O)(=O)c1cc(F)c(F)cc1F targetentity="UniProt P43115" value=0.3
smilesstring=O=C(/C=C/c1cccc2c1N(Cc1ccc(Cl)cc1Cl)C(=O)C2(F)F)NS(=O)(=O)c1ccc(Cl)c(Cl)c1 targetentity="UniProt P43115" value=0.2

P. O=C(/C=C/c1cccc2c1N(Cc1ccc(Cl)cc1Cl)C(=O)C2(F)F)NS(=O)(=O)c1cccc(Cl)c1
Q. O=C(/C=C/c1cccc2c1N(Cc1ccc3ccccc3c1)C(=O)C2)NS(=O)(=O)c1cccc(Cl)c1
Task item: Compare P and Q by numeric IC50 and name the larger one. Record your answer as the label of the chosen record.
Reply: Q
